The measured values listed here are drawn from PubChem BioAssay (NCI).

Entries and their growth values follow.
- System: RXF 393 renal
- TEST NAME: NCI-60 one-dose screen, 48 h (100 = growth as untreated, 0 = no growth, -100 = all killed)
- EXPERIMENTAL CONDITIONS: 10 µM unless noted
The panel holds about 83,000 compounds, 20% with a hit somewhere; the sample as a whole holds those more often.
Write it as a number; the unit % goes unstated.

Observe how each entry below is paired with its result.
{"columns": ["COMPOUND", "UNIT ABBREV", "growth"],
 "data": [
  ["COc1ccc(NC(=O)c2c(Nc3ccc(OC)cc3OC)n[nH]c2N)c(OC)c1", "%", 81.1],
  ["O=C1NC(=C(Cl)Cl)/C(=N/S(=O)(=O)N2CCC(C3(C(F)(F)F)N=N3)CC2)N1", "%", 79.5],
  ["Clc1cc(Cl)c2nc(-c3ccc(-c4ccc(/C=N/NC5=NCCN5)cc4)s3)cn2c1", "%", 81.4]
]}

Which value of growth has been reported for CN1C(=O)N(C)C2C1NN=c1s/c(=C\C=C\c3ccccc3)c(=O)n12 (stereo not given) in the records? 77.7

Which value of growth has been reported for COc1ccncc1S(=O)(=O)NC(=O)Nc1ccc(Cl)c(Cl)c1 in the records? 79.3
